Attribution: ChEMBL document CHEMBL5291721

# AC50 per entry for Histamine H1 receptor (Homo sapiens, UniProt P35367)

Any idea what its AC50 is? The molecule is Cc1c(C(=O)NN2CCCCC2)nn(-c2ccc(Cl)cc2Cl)c1-c1ccc(Cl)cc1 [RIMONABANT]
22 µM

What about Clc1ccc2nsnc2c1NC1=NCCN1 [TIZANIDINE] ?
> 10 µM

What about CC(Oc1c(Cl)cccc1Cl)C1=NCCN1 (configuration not stated) [LOFEXIDINE] ?
> 30 µM

What about C/C(O)=C(\C#N)C(=O)Nc1ccc(C(F)(F)F)cc1 [TERIFLUNOMIDE] ?
> 30 µM

What about C[C@H](CSC(=O)c1ccccc1)C(=O)N1C[C@@H](Sc2ccccc2)C[C@H]1C(=O)O [ZOFENOPRIL] ?
> 10 µM

What about COc1ccc(CCNCC(O)COc2cccc(C)c2)cc1OC (configuration not stated) [BEVANTOLOL] ?
> 10 µM

What about COC(=O)[C@H]1[C@H]2C[C@@H]3c4[nH]c5cc(OC)ccc5c4CCN3C[C@H]2C[C@@H](OC(=O)/C=C/c2cc(OC)c(OC)c(OC)c2)[C@@H]1OC [RESCINNAMINE] ?
> 10 µM

What about CC1(C)O[C@@H]2C[C@H]3[C@@H]4CCC5=CC(=O)C=C[C@]5(C)[C@H]4[C@@H](O)C[C@]3(C)[C@]2(C(=O)CO)O1 [DESONIDE] ?
> 10 µM

What about CC(C)=CCC/C(C)=C/C=C/C(C)=C/C=C/C(C)=C/C=C/C=C(C)/C=C/C=C(C)/C=C/C=C(\C)CCC=C(C)C [LYCOPENE] ?
> 30 µM

What about CN(C)CCC=C1c2ccccc2C(C)(C)c2ccccc21 ?
0.0369 µM

What about CC(=O)OCC(=O)[C@@]12N=C(C)O[C@@H]1C[C@H]1[C@@H]3CCC4=CC(=O)C=C[C@]4(C)[C@H]3[C@@H](O)C[C@@]12C [DEFLAZACORT] ?
> 30 µM

What about Fc1ccc(C(c2ccccc2)(c2ccccc2F)n2ccnc2)cc1 (configuration not stated) [FLUTRIMAZOLE] ?
> 30 µM

What about c1cnc(N2CCN(Cc3ccc4c(c3)OCO4)CC2)nc1 [PIRIBEDIL] ?
> 30 µM

What about O=C1C(O)=C([C@H]2CC[C@H](c3ccc(Cl)cc3)CC2)C(=O)c2ccccc21 [ATOVAQUONE] ?
> 30 µM

What about CCN(CC)C(=O)N[C@H]1C[C@@H]2c3cccc4[nH]cc(c34)C[C@H]2N(C)C1 [TERGURIDE] ?
2.1 µM

What about CCOc1ccc(Cc2cc([C@@H]3O[C@H](CO)[C@@H](O)[C@H](O)[C@H]3O)ccc2Cl)cc1 [DAPAGLIFLOZIN] ?
> 10 µM

What about CC(C)(C)NCC(O)COc1cccc2c1CCC(=O)N2 (configuration not stated) [CARTEOLOL] ?
> 10 µM

* * *

Biological target: Muscarinic acetylcholine receptor M1 (Homo sapiens, UniProt P11229); also: assay procedure not described here
Sequence (P11229 whole entry): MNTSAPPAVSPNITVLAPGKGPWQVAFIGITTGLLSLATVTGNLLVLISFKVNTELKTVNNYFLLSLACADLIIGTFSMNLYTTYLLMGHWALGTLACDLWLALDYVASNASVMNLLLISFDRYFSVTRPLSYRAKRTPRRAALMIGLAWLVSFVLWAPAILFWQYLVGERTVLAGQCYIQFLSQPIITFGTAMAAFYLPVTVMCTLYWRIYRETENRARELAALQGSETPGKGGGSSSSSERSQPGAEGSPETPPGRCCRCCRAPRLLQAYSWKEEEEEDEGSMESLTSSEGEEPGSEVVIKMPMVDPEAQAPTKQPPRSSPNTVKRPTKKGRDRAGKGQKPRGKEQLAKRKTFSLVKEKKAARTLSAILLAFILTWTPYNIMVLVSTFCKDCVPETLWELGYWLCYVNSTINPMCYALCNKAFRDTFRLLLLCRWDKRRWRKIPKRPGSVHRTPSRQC
Format: functional
Recorded Metric: AC50

Any idea what its AC50 is? The compound is O=C(NCCNCC(O)COc1ccc(O)cc1)N1CCOCC1 (stereo not drawn)
> 30 µM

What about CC1(C)NC(=O)N(c2ccc([N+](=O)[O-])c(C(F)(F)F)c2)C1=O [NILUTAMIDE] ?
> 30 µM

What about CCCc1nc(C(C)(C)O)c(C(=O)OCc2oc(=O)oc2C)n1Cc1ccc(-c2ccccc2-c2nnn[nH]2)cc1 ?
> 10 µM

What about Cc1ccc(-n2nccn2)c(C(=O)N2CCN(c3nc4cc(Cl)ccc4o3)CC[C@H]2C)c1 ?
> 30 µM

What about Cc1cc(O)c(C(=O)N[C@@H](C(=O)N[C@@H]2C(=O)N3C(C(=O)O)=C(CSc4nnnn4C)CS[C@H]23)c2ccc(O)cc2)cn1 [CEFPIRAMIDE] ?
> 30 µM

What about O=C(OCC(O)CO)c1ccccc1Nc1ccnc2cc(Cl)ccc12 (stereo not drawn) ?
> 30 µM

What about CC(CC1c2ccccc2CCc2ccccc21)CN(C)C (stereo not drawn) ?
0.23 µM

What about OC(CNCC(O)C1CCc2cc(F)ccc2O1)C1CCc2cc(F)ccc2O1 (stereo not drawn) ?
19 µM

What about NS(=O)(=O)Cc1noc2ccccc12 [ZONISAMIDE] ?
> 10 µM

What about O=C1Nc2ccc(Cl)cc2[C@@](C#CC2CC2)(C(F)(F)F)O1 ?
> 30 µM

What about COc1ccc(-c2ccc3cc(C(=O)O)ccc3c2)cc1C12CC3CC(CC(C3)C1)C2 ?
> 30 µM

What about CCN(CC)C(=O)N[C@H]1C[C@@H]2c3cccc4[nH]cc(c34)C[C@H]2N(C)C1 [TERGURIDE] ?
> 30 µM

What about CNC1Cc2ccccc2N(C)c2ccccc21 (stereo not drawn) ?
> 30 µM

What about C=CCN1C[C@H](C(=O)N(CCCN(C)C)C(=O)NCC)C[C@@H]2c3cccc4[nH]cc(c34)C[C@H]21 ?
> 10 µM

What about CC(C[N+](C)(C)C)OC(N)=O (stereo not drawn) ?
> 10 µM

What about O=C(O)CCCCCCNC1c2ccccc2CCc2ccccc21 ?
> 30 µM

What about CCC(C(=O)O)c1ccc(N2Cc3ccccc3C2=O)cc1 (stereo not drawn) ?
> 30 µM

What about C[C@H]1COc2c(C3(N)CC3)c(F)cc3c(=O)c(C(=O)O)cn1c23 ?
> 10 µM

What about Nc1nc(NC2CC2)c2ncn([C@H]3C=C[C@@H](CO)C3)c2n1 ?
> 30 µM

What about C[C@H]1CNCCc2ccc(Cl)cc21 ?
> 30 µM

What about CN(C)CCc1c[nH]c2ccc(C[C@H]3COC(=O)N3)cc12 ?
> 30 µM

What about CC1(C)CCC(CN2CCN(c3ccc(C(=O)NS(=O)(=O)c4ccc(NCC5CCOCC5)c([N+](=O)[O-])c4)c(Oc4cnc5[nH]ccc5c4)c3)CC2)=C(c2ccc(Cl)cc2)C1 ?
> 30 µM

What about COC1=C(OC)C(=O)C(C/C=C(\C)CC/C=C(\C)CC/C=C(\C)CC/C=C(\C)CC/C=C(\C)CC/C=C(\C)CC/C=C(\C)CC/C=C(\C)CC/C=C(\C)CCC=C(C)C)=C(C)C1=O ?
> 30 µM

What about CCc1c(Cl)c(O)c(Cl)c(O)c1C(=O)O[C@H]1[C@H](O)[C@H](OC)[C@H](OC/C2=C\C=C\C[C@H](O)/C(C)=C/[C@H](CC)[C@@H](O[C@@H]3OC(C)(C)[C@@H](OC(=O)C(C)C)[C@H](O)[C@@H]3O)/C(C)=C/C(C)=C/C[C@@H]([C@@H](C)O)OC2=O)O[C@@H]1C ?
> 30 µM

What about COc1cc2nc(N(C)CCCNC(=O)C3CCCO3)nc(N)c2cc1OC (stereo not drawn) ?
> 30 µM

What about C=CCc1ccccc1OCC(O)CNC(C)C (stereo not drawn) ?
> 30 µM

What about CN(C)CCC=C1c2ccccc2C(C)(C)c2ccccc21 ?
0.129 µM

What about CC[C@H]1[C@@H](O)[C@@H]2[C@H](CC[C@]3(C)[C@@H]([C@H](C)CCC(=O)O)CC[C@@H]23)[C@@]2(C)CC[C@@H](O)C[C@@H]12 ?
> 30 µM

What about C=CCC1(CC(C)C)C(=O)NC(=O)NC1=O ?
> 30 µM

What about Cc1nc([N+](=O)[O-])cn1-c1ccc([N+](=O)[O-])cc1 ?
> 30 µM

What about CN1C(=O)CCS(=O)(=O)C1c1ccc(Cl)cc1 (stereo not drawn) ?
> 30 µM

What about C[C@H](N)[C@H](O)c1cccc(O)c1 ?
> 10 µM

What about COc1ccccc1N1CCN(CCCNc2cc(=O)n(C)c(=O)n2C)CC1 ?
> 30 µM

* * *

# AC50 per entry for Androgen receptor (Rattus norvegicus)

Any idea what its AC50 is? The molecule is CC(C)(C)NCC(O)COc1cccc2c1CCC(=O)N2 (stereo not drawn) [CARTEOLOL]
> 10 µM

What about CCOc1ccccc1OCC1CNCCO1 (stereo not drawn) [VILOXAZINE] ?
> 30 µM

What about O=C(O)C1=C(CSc2nnnn2CS(=O)(=O)O)CS[C@@H]2[C@H](NC(=O)[C@H](O)c3ccccc3)C(=O)N12 [CEFONICID] ?
> 30 µM

What about CCc1c(Cl)c(O)c(Cl)c(O)c1C(=O)O[C@H]1[C@H](O)[C@H](OC)[C@H](OC/C2=C\C=C\C[C@H](O)/C(C)=C/[C@H](CC)[C@@H](O[C@@H]3OC(C)(C)[C@@H](OC(=O)C(C)C)[C@H](O)[C@@H]3O)/C(C)=C/C(C)=C/C[C@@H]([C@@H](C)O)OC2=O)O[C@@H]1C [FIDAXOMICIN] ?
25 µM

What about NC(=O)OCC(COC(N)=O)c1ccccc1 [FELBAMATE] ?
> 10 µM

What about Cc1ccc(-c2cc(C(F)(F)F)nn2-c2ccc(S(N)(=O)=O)cc2)cc1 [CELECOXIB] ?
> 30 µM

What about Cc1c(C(=O)NN2CCCCC2)nn(-c2ccc(Cl)cc2Cl)c1-c1ccc(Cl)cc1 [RIMONABANT] ?
> 30 µM

What about C=CCC1(CC(C)C)C(=O)NC(=O)NC1=O [BUTALBITAL] ?
> 10 µM
